Target: T1, GST-WWP1.3
T1 construct: Coated on polystyrene plates; also called WWP1 WW domain 3; not shown: glutathione S-transferase (GST) fusion partner
T1 sequence (chain, as listed by the source): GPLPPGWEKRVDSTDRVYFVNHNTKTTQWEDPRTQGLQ
Assay: TRF (DELFIA) plate assay, GST-WW domain coated at 30 µg/mL, titrated with biotinylated peptide
Where no end group is shown, it is not given here. The star is where a group is joined. Biotin = O=C1N[C@H]2[C@H](CS[C@H]2CCCCC(=O)*)N1; Ahx = NCCCCCC(=O)O
quantity_name: binding result

binder | reported
{Biotin-Ahx}-PADTPPPAYLPPED-NH2 (SMILES CC(C)C[C@H](NC(=O)[C@H](Cc1ccc(O)cc1)NC(=O)[C@H](C)NC(=O)[C@@H]1CCCN1C(=O)[C@@H]1CCCN1C(=O)[C@@H]1CCCN1C(=O)[C@@H](NC(=O)[C@H](CC(=O)O)NC(=O)[C@H](C)NC(=O)[C@@H]1CCCN1C(=O)CCCCCNC(=O)CCCC[C@@H]1SC[C@@H]2NC(=O)N[C@@H]21)[C@@H](C)O)C(=O)N1CCC[C@H]1C(=O)N1CCC[C@H]1C(=O)N[C@@H](CCC(=O)O)C(=O)N[C@@H](CC(=O)O)C(N)=O, also called Smad 1 PY peptide; Biotin-Ahx-PADTPPPAYLPPED-CONH2) [Smad1 PY motif peptide PADTPPPAYLPPED] | no binding
PADTPPPAYMPPDD (not fully specified (N-terminus); also: biotin with C6 linker, end not given here, also called Smad 5 peptide) [Smad5 PY motif peptide PADTPPPAYMPPDD] | binds
AGLTPPPGYLSEDG (not fully specified (N-terminus); also: biotin with C6 linker, end not given here, also called Smad 3 peptide) [Smad3 PY motif peptide AGLTPPPGYLSEDG] | no binding
